- TARGET UNDER TEST: T1, mouse GLP-1 receptor (mGLP-1r) (Mus musculus, UniProt O35659)
- T1 construct: expressed in transfected cells; host or cells: HEK293s or CHO cells
- T1 sequence (O35659 22-463): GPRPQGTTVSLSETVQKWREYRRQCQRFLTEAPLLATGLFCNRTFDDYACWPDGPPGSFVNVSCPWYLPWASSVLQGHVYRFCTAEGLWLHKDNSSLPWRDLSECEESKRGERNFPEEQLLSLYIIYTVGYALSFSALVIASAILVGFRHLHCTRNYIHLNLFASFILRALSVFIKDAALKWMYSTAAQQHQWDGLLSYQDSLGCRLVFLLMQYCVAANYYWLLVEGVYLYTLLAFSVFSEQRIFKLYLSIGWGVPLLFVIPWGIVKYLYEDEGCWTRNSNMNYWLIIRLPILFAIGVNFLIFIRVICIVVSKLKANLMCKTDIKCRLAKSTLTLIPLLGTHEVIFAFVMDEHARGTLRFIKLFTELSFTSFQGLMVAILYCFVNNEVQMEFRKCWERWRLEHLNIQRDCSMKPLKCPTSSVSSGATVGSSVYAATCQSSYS
- METHOD SUMMARY: BSA-cAMP assay, cells expressing mouse GLP-1 receptor
- Assay type: cell-based
- TEST SETTINGS: Batch 1; BSA-cAMP assay; read-out: mGLP1r cAMP activity EC50
pEC50: −log10 of the molar value.

{"MOLECULE": "IP366 (protein) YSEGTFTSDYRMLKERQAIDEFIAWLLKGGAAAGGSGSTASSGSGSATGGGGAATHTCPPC", "pEC50": 7.00}
{"MOLECULE": "IP401 (protein) YSEGTHTSDLSKLLERQAIDEFIAWLLKGGAAAGGSGSTASSGSGSATGGGGAATHTCPPC", "pEC50": 7.89}
{"MOLECULE": "IP365 (protein) YSEGMHTSDFSKLLERQAIDEFIAWLLKGGAAAGGSGSTASSGSGSATGGGGAATHTCPPC", "pEC50": 7.96}
